molecular target: purified human, His-tagged PRC2 complex (Homo sapiens (Human), UniProt O75530); experiment: Hot Spot HMT assay, inhibition of PRC2 enzymatic activity; conditions: 10 nM PRC2 complex, 1 μM 3H-SAM, core histone H3, 10-point dose-response
Sequence (O75530 whole entry): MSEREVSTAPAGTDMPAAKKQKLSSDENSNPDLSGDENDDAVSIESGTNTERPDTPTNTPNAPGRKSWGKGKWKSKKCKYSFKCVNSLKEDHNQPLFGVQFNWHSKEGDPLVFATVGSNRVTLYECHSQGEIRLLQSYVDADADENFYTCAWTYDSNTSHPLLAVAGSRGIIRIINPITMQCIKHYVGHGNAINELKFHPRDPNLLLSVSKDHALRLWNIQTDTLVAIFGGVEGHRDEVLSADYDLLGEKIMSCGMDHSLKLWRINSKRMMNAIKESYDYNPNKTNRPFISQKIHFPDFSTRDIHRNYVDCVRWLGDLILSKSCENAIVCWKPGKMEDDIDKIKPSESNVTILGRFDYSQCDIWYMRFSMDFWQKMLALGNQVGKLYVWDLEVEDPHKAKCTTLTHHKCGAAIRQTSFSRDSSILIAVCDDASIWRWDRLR
Sequence (Q15910 whole entry partner): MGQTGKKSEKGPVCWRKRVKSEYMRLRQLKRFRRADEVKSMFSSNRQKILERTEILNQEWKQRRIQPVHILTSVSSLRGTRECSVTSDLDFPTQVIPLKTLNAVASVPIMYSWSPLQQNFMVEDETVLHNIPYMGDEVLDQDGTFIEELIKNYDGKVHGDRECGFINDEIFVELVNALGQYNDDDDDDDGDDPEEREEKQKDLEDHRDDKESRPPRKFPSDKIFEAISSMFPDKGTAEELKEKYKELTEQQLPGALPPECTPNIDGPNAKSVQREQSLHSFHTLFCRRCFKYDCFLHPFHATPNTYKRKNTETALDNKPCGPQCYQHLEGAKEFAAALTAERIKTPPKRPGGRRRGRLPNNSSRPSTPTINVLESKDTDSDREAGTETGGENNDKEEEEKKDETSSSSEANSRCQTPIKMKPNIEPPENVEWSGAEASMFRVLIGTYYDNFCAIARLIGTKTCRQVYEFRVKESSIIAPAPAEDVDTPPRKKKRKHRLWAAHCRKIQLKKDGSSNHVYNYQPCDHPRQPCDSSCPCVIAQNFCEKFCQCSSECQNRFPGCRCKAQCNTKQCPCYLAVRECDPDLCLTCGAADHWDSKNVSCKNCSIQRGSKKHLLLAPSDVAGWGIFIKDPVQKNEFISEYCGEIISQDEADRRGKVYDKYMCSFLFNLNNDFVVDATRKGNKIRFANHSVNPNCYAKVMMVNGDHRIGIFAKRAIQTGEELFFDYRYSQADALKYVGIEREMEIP
Sequence (Q15022 whole entry partner): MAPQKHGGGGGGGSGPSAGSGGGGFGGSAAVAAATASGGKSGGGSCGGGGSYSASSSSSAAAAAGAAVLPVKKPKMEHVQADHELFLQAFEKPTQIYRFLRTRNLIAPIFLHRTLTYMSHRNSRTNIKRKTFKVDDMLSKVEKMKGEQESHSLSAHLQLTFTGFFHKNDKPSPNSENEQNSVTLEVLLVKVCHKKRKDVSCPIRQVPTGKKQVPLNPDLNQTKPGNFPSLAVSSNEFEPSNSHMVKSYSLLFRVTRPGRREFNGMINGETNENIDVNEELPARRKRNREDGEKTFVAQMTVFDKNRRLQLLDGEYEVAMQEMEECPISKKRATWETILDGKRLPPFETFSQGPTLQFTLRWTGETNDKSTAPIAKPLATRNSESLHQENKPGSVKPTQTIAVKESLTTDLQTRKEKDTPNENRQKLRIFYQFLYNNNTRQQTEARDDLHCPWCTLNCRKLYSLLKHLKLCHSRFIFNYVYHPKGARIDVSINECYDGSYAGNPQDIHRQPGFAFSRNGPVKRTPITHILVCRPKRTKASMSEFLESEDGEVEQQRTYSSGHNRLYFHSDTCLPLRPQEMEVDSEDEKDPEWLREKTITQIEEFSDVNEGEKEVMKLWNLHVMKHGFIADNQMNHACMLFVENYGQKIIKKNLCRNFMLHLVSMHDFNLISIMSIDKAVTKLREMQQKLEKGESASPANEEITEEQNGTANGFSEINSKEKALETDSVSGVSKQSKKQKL
Sequence (Q6ZN18 whole entry partner): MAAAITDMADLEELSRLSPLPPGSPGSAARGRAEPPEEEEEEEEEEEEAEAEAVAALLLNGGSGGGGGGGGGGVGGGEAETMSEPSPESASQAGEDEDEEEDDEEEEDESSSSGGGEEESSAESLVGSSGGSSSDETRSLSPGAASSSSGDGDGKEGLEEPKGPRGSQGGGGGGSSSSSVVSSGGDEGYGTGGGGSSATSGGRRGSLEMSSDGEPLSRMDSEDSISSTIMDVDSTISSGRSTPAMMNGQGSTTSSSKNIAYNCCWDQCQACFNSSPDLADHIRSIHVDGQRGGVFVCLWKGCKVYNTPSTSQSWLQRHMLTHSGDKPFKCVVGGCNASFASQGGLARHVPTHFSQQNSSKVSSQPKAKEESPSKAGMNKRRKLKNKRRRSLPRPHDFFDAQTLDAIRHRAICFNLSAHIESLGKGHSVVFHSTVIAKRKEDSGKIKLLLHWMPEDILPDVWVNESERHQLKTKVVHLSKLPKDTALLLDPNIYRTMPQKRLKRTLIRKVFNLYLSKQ
Sequence (Q09028 whole entry partner): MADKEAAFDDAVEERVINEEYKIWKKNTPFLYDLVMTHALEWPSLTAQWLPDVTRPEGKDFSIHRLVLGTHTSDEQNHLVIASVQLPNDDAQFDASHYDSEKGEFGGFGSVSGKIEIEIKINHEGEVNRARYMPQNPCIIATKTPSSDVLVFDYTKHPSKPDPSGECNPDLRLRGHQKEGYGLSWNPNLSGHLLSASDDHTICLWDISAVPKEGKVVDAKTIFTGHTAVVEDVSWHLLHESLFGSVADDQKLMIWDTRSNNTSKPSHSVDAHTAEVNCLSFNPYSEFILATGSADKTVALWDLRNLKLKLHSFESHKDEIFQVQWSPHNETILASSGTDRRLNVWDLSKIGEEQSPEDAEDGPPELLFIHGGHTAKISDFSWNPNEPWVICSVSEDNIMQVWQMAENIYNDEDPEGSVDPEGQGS
IC50 values by entry
observable: IC50

compound	test.system	observable	test.value
Cc1cc(-c2cnc(NCc3c(F)ccc4sccc34)n3cc(C#N)nc23)n(C)n1 [Example 81]	purified human, His-tagged PRC2 complex (Homo sapiens (Human), UniProt O75530)	IC50	> 500 nM
Cc1cc(-c2cnc(NCc3c(F)ccc4c3CCO4)n3cc(C#N)nc23)ccc1CN(C)C [Example 200]	purified human, His-tagged PRC2 complex (Homo sapiens (Human), UniProt O75530)	IC50	100 to 500 nM
CN(C)CCn1nccc1-c1cnc(NCc2c(F)ccc3c2CCO3)n2cc(C#N)nc12 [Example 230]	purified human, His-tagged PRC2 complex (Homo sapiens (Human), UniProt O75530)	IC50	< 100 nM
N#Cc1cn2c(NCc3c(F)ccc4c3CCO4)ncc(-c3ccc4c(c3)CCNC4=O)c2n1 [Example 172]	purified human, His-tagged PRC2 complex (Homo sapiens (Human), UniProt O75530)	IC50	< 100 nM
Cc1cc(-c2cnc(NCc3cccc4c3CCO4)n3cc(C(=O)O)nc23)n(C)n1 [Example 10]	purified human, His-tagged PRC2 complex (Homo sapiens (Human), UniProt O75530)	IC50	< 100 nM

---

target: purified human, His-tagged PRC2 complex (Homo sapiens (Human), UniProt O75530); assay: Hot Spot HMT assay, inhibition of PRC2 enzymatic activity; format: biochemical; settings: 10 nM PRC2 complex, 1 μM 3H-SAM, core histone H3, 10-point dose-response

molecule	IC50
Cc1cn(-c2cnc(NCc3c(F)ccc4c3CCO4)n3cc(C(N)=O)nc23)cn1	100 to 500 nM
COC1CCN(Cc2ccc(-c3cnc(NCc4c(F)ccc5c4CCO5)n4cc(C#N)nc34)cc2)C1 (centres unmarked)	< 100 nM
Cc1cc(-c2cnc(NCc3c(F)ccc4c3CCO4)n3cc(C#N)nc23)n(C)n1	< 100 nM
Cc1cc(-c2cnc(NCc3c(F)ccc4c3CCO4)n3cc(C#N)nc23)cnn1	< 100 nM
Cn1nc(C#N)cc1-c1cnc(NCc2c(F)ccc3c2CCO3)n2cc(C#N)nc12	< 100 nM
Cc1nc(C2CC2)ncc1-c1cnc(NCc2c(F)ccc3c2CCO3)n2cc(C(N)=O)nc12	100 to 500 nM
N#Cc1cn2c(NCc3c(F)ccc4c3CCO4)ncc(-c3cnn(CCO)c3)c2n1	100 to 500 nM
Cc1ncc(-c2cnc(NCc3c(F)ccc4c3CCO4)n3cc(C#N)nc23)cn1	< 100 nM
Cc1ccncc1-c1cnc(NCc2c(F)ccc3c2CCO3)n2cc(C#N)nc12	< 100 nM
COCCOc1ccc(-c2cnc(NCc3c(F)ccc4c3CCO4)n3cc(C#N)nc23)c(C)c1	100 to 500 nM
N#Cc1cn2c(NCc3c(F)ccc4c3CCO4)ncc(-c3ccccc3)c2n1	< 100 nM

---

biological target: purified human, His-tagged PRC2 complex (Homo sapiens (Human), UniProt O75530); assay: Hot Spot HMT assay, inhibition of PRC2 enzymatic activity; conditions: 10 nM PRC2 complex, 1 μM 3H-SAM, core histone H3, 10-point dose-response
pIC50: −log10 of the molar value.

compound	pIC50
Cn1cccc(-c2cnc(NCc3c(F)ccc4c3CCO4)n3cc(C#N)nc23)c1=O	6.30 to 7.00
COC(=O)c1ccc(-c2cnc(NCc3c(F)ccc4c3CCO4)n3cc(C#N)nc23)cn1	> 7.00
N#Cc1cn2c(NCc3c(F)ccc4c3CCO4)ncc(-c3cccnc3C(F)F)c2n1	> 7.00
N#Cc1cn2c(NCc3c(F)ccc4c3CCO4)ncc(-c3ccccn3)c2n1	6.30 to 7.00
N#Cc1cn2c(NCc3c(F)ccc4c3CCO4)ncc(-c3ccc([C@H]4CCCN4)cc3)c2n1	6.30 to 7.00
Cc1ccc(-c2cnc(NCc3c(F)ccc4c3CCO4)n3cc(C#N)nc23)c(C)c1	< 6.30
N#Cc1cn2c(NCc3c(F)ccc4c3CCO4)ncc(-c3cccnc3)c2n1	> 7.00
CN(C)Cc1ccc(-c2cnc(NCc3c(F)ccc4c3CCO4)n3cc(C#N)nc23)c(C#N)c1	> 7.00
CN(C)C(=O)c1cc(Cl)c(-c2cnc(NCc3c(F)ccc4c3CCO4)n3cc(C#N)nc23)cc1F	> 7.00
Cc1cc(-c2cnc(NCc3c(F)ccc4c3CCO4)n3cc(C(=O)N(C)C)nc23)n(C)n1	< 6.30
Cc1nc(OC(C)C)ncc1-c1cnc(NCc2c(F)ccc3c2CCO3)n2cc(C#N)nc12	> 7.00
Cc1cc(-c2cnc(NCc3c(Cl)ccc4c3CCO4)n3cc(C#N)nc23)n(C)n1	< 6.30
CN(C)CCn1cc(-c2cnc(NCc3c(F)ccc4c3CCO4)n3cc(C#N)nc23)cn1	6.30 to 7.00
Cc1nc(C2CC2)ncc1-c1cnc(NCc2c(F)ccc3c2CCO3)n2cc(C#N)nc12	6.30 to 7.00
COc1cc(C)c(-c2cnc(NCc3c(F)ccc4c3CCO4)n3cc(C(N)=O)nc23)cn1	6.30 to 7.00
N#Cc1cn2c(NCc3c(F)ccc4c3CCO4)ncc(-c3ccnn3C3CC3)c2n1	> 7.00
Cc1cncc(-c2cnc(NCc3c(F)ccc4c3CCO4)n3cc(C#N)nc23)c1	> 7.00
CN(C)c1ccc(-c2cnc(NCc3c(F)ccc4c3CCO4)n3cc(C#N)nc23)cn1	6.30 to 7.00
N#Cc1cn2c(NCc3c(F)ccc4c3CCO4)ncc(-c3cnccc3Cl)c2n1	> 7.00
COc1cc(-c2cnc(NCc3c(F)ccc4c3CCO4)n3cc(C#N)nc23)ccn1	> 7.00
CNCc1ccc(-c2cnc(NCc3c(F)ccc4c3CCO4)n3cc(C#N)nc23)c(C)c1	6.30 to 7.00
CN(C)CCc1ccc(-c2cnc(NCc3c(F)ccc4c3CCO4)n3cc(C#N)nc23)cc1	> 7.00
COCCn1cc(-c2cnc(NCc3c(F)ccc4c3CCO4)n3cc(C#N)nc23)cn1	6.30 to 7.00
N#Cc1cn2c(NCc3c(F)ccc4c3CCO4)ncc(-c3ccc(CN4CC(F)(F)C4)cc3)c2n1	> 7.00
N#Cc1cn2c(NCc3c(F)ccc4c3CCO4)ncc(-c3ccn(CC4CCCO4)n3)c2n1 (stereo not drawn)	6.30 to 7.00
COC(=O)c1ccc(-c2cnc(NCc3c(F)ccc4c3CCO4)n3cc(C#N)nc23)cc1	6.30 to 7.00
CCOP(=O)(OCC)c1ccc(-c2cnc(NCc3c(F)ccc4c3CCO4)n3cc(C#N)nc23)cc1	> 7.00
